assay: PK study in rats, single oral administration; assay type: in vivo; details: rat, plasma
measureName: half-life (h)

Before answering, review these 4 worked examples.
| compound | units | half-life |
| --- | --- | --- |
| C#Cc1cc(CNC(=O)/C=C/c2ccc(C(F)(F)F)nc2N2CCOCC2)cc(F)c1NS(C)(=O)=O | h | 1.7 |
| C=Cc1cc(CNC(=O)/C=C/c2ccc(C(F)(F)F)nc2N2CCOCC2)cc(F)c1NS(C)(=O)=O | h | 1.26 |
| C#Cc1cc(CNC(=O)/C=C/c2ccc(C(F)(F)F)nc2NC(C)C)cc(F)c1NS(C)(=O)=O | h | 3.21 |
| C#Cc1cc(CNC(=O)/C=C/c2ccc(C(C)(C)C)cc2N2CCOCC2)cc(F)c1NS(C)(=O)=O [drawing 350, reference compound] | h | 0.932 |

A = C#Cc1cc(CNC(=O)/C=C/c2ccc(C(F)(F)F)nc2)cc(F)c1NS(C)(=O)=O
B = C#Cc1cc(CNC(=O)/C=C/c2ccc(C(F)(F)F)nc2CCC)cc(F)c1NS(C)(=O)=O
Q. Which item exceeds the other in half-life, A or B ? Identify your pick by its label.
A. A
(A: 3.95 h, B: 1.42 h)
